experimental-target: T1, human IGF-1 receptor (human, UniProt P08069 31-1367)
T1 construct: whole, on cells; also called IGF-IR; IGR-1R
test-details: competition with 125I-IGF-1, receptor membranes, SPA
Bridges are numbered along the chain shown (N, C = ends). Roman numbers before positions name the chains, in order. Where no end group is shown, it is not given here.
result-type: % native IGF-1 activity (0.55 nM) (%)
A number alone suffices; assume %.

{"binder": "IGF-1 A:IGF-1 B(1-8)-In (9-17)-IGF-1 B(18-30) (ligand, disulfide I:6-I:11, I:20-II:18, I:7-II:6) chain 1: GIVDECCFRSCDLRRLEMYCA-NH2 chain 2: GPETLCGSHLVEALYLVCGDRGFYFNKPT-NH2", "% native IGF-1 activity (0.55 nM) [%]": 0.4}

## Input State the recorded % native IGF-1 activity (0.55 nM) for this entry: IGF-1 A:B(E10 Y16L17)-E31E32 B-COOH (ligand, disulfide I:6-I:11, I:20-II:18, I:7-II:6) chain 1: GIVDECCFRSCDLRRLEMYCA-NH2 chain 2: GPETLCGAELVDALYLVCGDRGFYFNKPTEE-OH
## Output 3.1

## Input State the recorded % native IGF-1 activity (0.55 nM) for this entry: IGF-1 A:In (1-17)-IGF-1 B (18-30) (ligand, disulfide I:6-I:11, I:20-II:19, I:7-II:7) chain 1: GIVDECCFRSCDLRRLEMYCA-NH2 chain 2: FVNQHLCGSHLVEALYLVCGDRGFYFNKPT-NH2
## Output 0.9

## Input State the recorded % native IGF-1 activity (0.55 nM) for this entry: IGF-1 A:B (E10Y16L17) DPI (ligand, disulfide I:6-I:11, I:20-II:18, I:7-II:6) chain 1: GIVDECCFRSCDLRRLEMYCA-NH2 chain 2: GPETLCGAELVDALYLVCGDRGFY-NH2
## Output 2.4

## Input State the recorded % native IGF-1 activity (0.55 nM) for this entry: IGF-1 A:B (H5D10Y16L17) DPI (ligand, disulfide I:6-I:11, I:20-II:18, I:7-II:6) chain 1: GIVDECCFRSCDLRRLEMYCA-NH2 chain 2: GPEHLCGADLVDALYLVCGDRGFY-NH2
## Output 11.8
